Cited source for all entries: patent US6653478B2

Assayed System: human V2 receptor (Homo sapiens, UniProt P30518)
Sequence (P30518 whole entry): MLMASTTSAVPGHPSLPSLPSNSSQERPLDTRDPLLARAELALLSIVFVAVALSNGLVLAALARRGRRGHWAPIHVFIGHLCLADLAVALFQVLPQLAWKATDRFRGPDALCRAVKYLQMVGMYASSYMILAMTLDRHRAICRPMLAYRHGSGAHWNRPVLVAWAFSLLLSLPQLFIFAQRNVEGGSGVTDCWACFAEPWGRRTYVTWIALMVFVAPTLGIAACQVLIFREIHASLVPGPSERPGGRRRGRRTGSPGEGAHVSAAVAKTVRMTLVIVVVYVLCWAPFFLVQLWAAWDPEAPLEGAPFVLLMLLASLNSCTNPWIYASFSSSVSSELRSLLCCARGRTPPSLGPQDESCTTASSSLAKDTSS
Test Details: V2 binding assay (3H-AVP displacement, HEK-293 membranes)
Parameters: expressed in transfected cells; host or cells: HEK-293 (membranes)
Conditions: 1.0 μM compound; read-out: V2@1.0, % Inh
Could you label it Met if measured inhibition at 1 µM is 5% or higher, and Not met otherwise?

Example cases with answers are listed next.
N=C(N)NCCCn1c(=O)n(C2CCN(C(=S)NC(c3ccccc3)c3ccccc3)CC2)c2ccccc21    Met
O=c1n(CCCN2CCCCC2)c2ccccc2n1C1CCN(C(=S)NCc2cccc3ccccc23)CC1    Not met
CC1CC(C)CN(CCCn2c(=O)n(C3CCN(C(=O)NC(c4ccccc4)c4ccccc4)CC3)c3ccccc32)C1 (stereo not shown)    Not met

Ask: Identify whether the reported inhibition at 1 µM of the following compound is 5% or greater: O=c1[nH]c2ccccc2n1C1CCN(C(=S)NCCc2ccccc2)CC1
Result: Not met

Ask: Hi, just wondering whether O=C(NC(c1ccccc1)c1ccccc1)N1CCC(n2c(=O)[nH]c3ccccc32)CC1 shows inhibition at 1 µM of 5% or higher.
Result: Not met

Ask: Dear colleague, could you confirm whether O=c1[nH]c2ccccc2n1C1CCN(C(=S)NCCCc2ccccc2)CC1 has inhibition at 1 µM at or above 5%?
Result: Met

Ask: Item CCN(CC)CCn1c(=O)n(C2CCN(C(=O)NC(c3ccccc3)c3ccccc3)CC2)c2ccccc21 with inhibition at 1 µM of 5% or above?
Result: Not met

Ask: Does the compound O=c1n(CCCN2CCCCC2)c2ccccc2n1C1CCN(C(=S)NC2CCCCC2)CC1 have recorded inhibition at 1 µM that is 5% or more?
Result: Not met

----------
List of inhibition at 1 µM values.
Assayed System: human V2 receptor (Homo sapiens)
Test Details: V2 binding assay (3H-AVP displacement, HEK-293 membranes)
Set-up: expressed in transfected cells; host or cells: HEK-293 (membranes)
Conditions: 1.0 μM compound; read-out: V2@1.0, % Inh

Here is how some compounds turned out for inhibition at 1 µM.
Cc1ccc2c(c1)n(CCCN1CCCCC1)c(=O)n2C1CCN(C(=S)NC(c2ccccc2)c2ccccc2)CC1    6%
CC(C)(NC(=S)N1CCC(n2c(=O)n(CCCN3CCCCC3)c3ccccc32)CC1)c1ccccc1    0%
CCCc1ccccc1NC(=O)N1CCC(n2c(=O)n(CCCN3CCCCC3)c3ccccc32)CC1    15%

Lookup result for C[C@H](NC(=S)N1CCC(n2c(=O)n(CCCN3CCCCC3)c3ccccc32)CC1)c1ccccc1 ; measured inhibition at 1 µM: 18%

----------
Each entry below lists one item and its recorded inhibition at 10 µM value.
Assayed System: NPY2 receptors (Homo sapiens)
Construct: Cell Membranes from KAN-TS cells having NPY2 receptors; endogenous in cells; host or cells: KAN-TS cells (membranes)
Sequence (P49146 whole entry): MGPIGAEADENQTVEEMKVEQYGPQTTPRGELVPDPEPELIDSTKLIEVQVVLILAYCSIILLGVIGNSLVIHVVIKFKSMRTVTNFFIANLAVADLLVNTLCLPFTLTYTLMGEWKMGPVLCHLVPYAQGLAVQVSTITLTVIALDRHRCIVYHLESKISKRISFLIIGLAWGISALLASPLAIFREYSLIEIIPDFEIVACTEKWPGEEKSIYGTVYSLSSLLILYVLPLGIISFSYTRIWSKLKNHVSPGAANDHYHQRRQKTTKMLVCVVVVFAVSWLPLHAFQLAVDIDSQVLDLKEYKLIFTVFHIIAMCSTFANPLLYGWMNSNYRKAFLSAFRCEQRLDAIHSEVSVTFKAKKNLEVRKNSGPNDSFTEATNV
Test Details: Neuropeptide Y receptor binding assay (125I-PYY, KAN-TS cell membranes)
Conditions: 10 μM compound; read-out: NPY-2@10, % Inh
Counter-ions that a name gives are not always drawn.
Write the answer as a number in %, unit excluded.

Below, 5 compounds whose answers are already recorded.
CN1CCCC1CCn1c(=O)n(C2CCN(C(=S)NC(c3ccccc3)c3ccccc3)CC2)c2ccccc21 (stereo not shown) [Compound 93]    17
O=C(O)C(Cc1ccccc1)NC(=S)N1CCC(n2c(=O)[nH]c3ccccc32)CC1 (stereo not shown) [Compound 41]    11
CCCN(CCC)CCCn1c(=O)n(C2CCN(C(=S)NC(c3ccccc3)c3ccccc3)CC2)c2ccccc21 [Compound 79]    80
NCCCn1c(=O)n(C2CCN(C(=O)Nc3ccccc3-c3ccccc3)CC2)c2ccccc21 [Compound 62, hydrochloride]    50
O=C(NCc1ccccc1)N1CCC(n2c(=O)[nH]c3ccccc32)CC1 [Compound 74]    0

Entry under test: O=c1[nH]c2ccccc2n1C1CCN(C(=S)NCc2cccc3ccccc23)CC1 [Compound 15] . Its inhibition at 10 µM was 14

So, CCN(CC)CCn1c(=O)n(C2CCN(C(=S)NCc3ccccc3-c3ccccc3)CC2)c2ccccc21 [Compound 90] ? Its inhibition at 10 µM was 13
